Below is a list of entries, each paired with its recorded pKd value.
- experimentalTarget: T1, cSIRPA_ECD (cynomolgus monkey)
- T1 construct: Secreted recombinant protein
- T1 chain: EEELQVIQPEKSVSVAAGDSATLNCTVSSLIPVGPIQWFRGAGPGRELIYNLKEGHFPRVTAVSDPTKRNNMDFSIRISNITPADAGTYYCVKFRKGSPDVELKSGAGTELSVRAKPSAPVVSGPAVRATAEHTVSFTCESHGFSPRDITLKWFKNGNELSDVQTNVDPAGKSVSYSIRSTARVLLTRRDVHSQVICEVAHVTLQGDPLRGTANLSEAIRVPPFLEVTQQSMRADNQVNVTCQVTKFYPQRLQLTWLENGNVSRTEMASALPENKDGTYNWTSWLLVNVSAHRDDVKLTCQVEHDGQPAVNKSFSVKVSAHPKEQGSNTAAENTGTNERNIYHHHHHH
- assay: SPR Biacore T200, antibody captured on anti-human IgG (Fc), monkey SIRPA_ECD as analyte, 1:1 model
Scale note: pKd = -log10(concentration in M).

Known pKd results, listed for orientation:
binder="humanized anti-SIRPA antibody hD13_H1L4 (antibody, human IgG4 S228P, kappa, F234A L235A, V domains shown, hH1 heavy chain (IgG4proFALA) and hL4 kappa light chain; also called hD13_HIL4; hD13_HIL4h) VH: QVQLVESGGGVVQPGRSLRLSCAASGFTFSDYGMIWVRQAPGKGLEWVASISSSSSYIYYADSVKGRFTISRDNSKNRLYLQMNSLRAEDTAVYYCARRYYGFNYPFDYWGQGTMVTVSS VL: DTVLTQSPDSLAVSLGQRATINCGASKSVRTYMHWYQQKPGQQPKLLIYSASNLEAGVPSRFSGSGSGTDFTLTISSLQAEDVAVYYCQQSNEPPYTFGQGTKVEIKR" reportedvalue=7.08
binder="humanized anti-SIRPA antibody hD13_H1L3 (antibody, human IgG4 S228P, kappa, F234A L235A, V domains shown, hH1 heavy chain (IgG4proFALA) and hL3 kappa light chain; also called hD13_HIL3; HIL3 antibody) VH: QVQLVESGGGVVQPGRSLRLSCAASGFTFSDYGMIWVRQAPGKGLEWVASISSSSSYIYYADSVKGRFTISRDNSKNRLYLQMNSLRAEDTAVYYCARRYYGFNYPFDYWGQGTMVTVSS VL: DTQLTQSPSSLSASVGQRVTITCGASKSVRTYMHWYQQKPGKQPKLLIYSASNLEAGVPSRFSGSGSGTDFTLTISSLQPEDFATYYCQQSNEPPYTFGQGTKLEIKR" reportedvalue=7.41
binder="humanized anti-SIRPA antibody hD13_H2L2 (antibody, human IgG4 S228P, kappa, F234A L235A, V domains shown, hH2 heavy chain (IgG4proFALA) and hL2 kappa light chain; also called H2L2 antibody) VH: EVQLVESGGGVVQPGRSLRLSCAASGFTFSDYGMIWVRQAPGKGLEWVASISSSSSYIYYADSVKGRFTISRDNSKNTLYLQMNSLRAEDTAVYYCARRYYGFNYPFDYWGQGTMVTVSS VL: AIQLTQSPSSLSASVGQRVTITCGASKSVRTYMHWYQQKPGKAPKLLIYSASNLEAGVPSRFSGSGSGTDFTLTISSLQPEDFATYYCQQSNEPPYTFGQGTKLEIKR" reportedvalue=6.79

Pending binder:
(Q) Recorded pKd of humanized anti-SIRPA antibody hD13_H2L3 (antibody, human IgG4 S228P, kappa, F234A L235A, V domains shown, hH2 heavy chain (IgG4proFALA) and hL3 kappa light chain; also called H2L3 antibody) VH: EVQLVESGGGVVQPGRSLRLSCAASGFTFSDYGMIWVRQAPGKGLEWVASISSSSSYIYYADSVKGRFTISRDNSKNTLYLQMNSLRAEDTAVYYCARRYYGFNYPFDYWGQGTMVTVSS VL: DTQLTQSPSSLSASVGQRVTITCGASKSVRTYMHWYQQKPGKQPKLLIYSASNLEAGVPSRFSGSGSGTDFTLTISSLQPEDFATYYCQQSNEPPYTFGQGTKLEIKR , please.
(A) 7.27
